- TESTED_TARGET: SARS-COV-2 RBD extracellular domain expressed with a C-terminal myc-myc-hexahistidine tag (SARS-COV-2 RBD-mmH) (SARS-CoV-2)
- ASSAY: SPR Biacore, mAb captured on anti-hFc, RBD-mmH analyte, 37 C
ASSAY_READOUT: t½ (min)
Reply numerically in min, unit not repeated.

1. mAb15151 (antibody, V domains shown) VH: QVQLVESGGGVVQPGRSLRLSCAASGFVFNSYGMHWVRQAPGKGLEWVAVLWYEGSKNYYADSVKGRFTISRDNSKNTLYLQMNSLRAEDTAVYYCARHGSGSFFGYYLDYWGQGTLVTVSS VL: DIQMTQSPSSLSASVGDRVTITCRASHNINDFLNWYQQKPGKAPRLLIYAASSLQSGVPSRFSGSGSGTDFTLTISSLQPEDFATYYCQESYTTPPTFGQGTKLEIKR    2.6
2. mAb15158 (antibody, V domains shown) VH: EVQLVESGGGLVQPGGSLRLSCAASGFSFSSNWMSWVRQAPGKGLEWVGNINQDGSEKYYVDSVEGRFTISRDNAKKSLYLQMNSLRAEDTAVYYCARDLGVLWFGDFVDWGQGALVTVSS VL: DIQMTQSPSSLSASVGDRVTITCRASQAISNSLAWYQQKPGKAPKLLLYAASTLESGVPSRFSGSGSGTDYTLTISSLQPEDFATYYCLQYYGSPRTFGQGTKVEIKR    55.7
3. mAb14286 (antibody, V domains shown) VH: QVQLVQSGAEVKKPGASVKVSCKASGYTFTDYFIHWVRQAPGQGLEWMGWINPTSGGTNYAQKFRGRVTMTRDTSISTAYVELSRLRSDDTALYYCARDLPFYSDTKQFDYWGQGTLVTVSS VL: QSALTQPASVSGYPGQSITISCTGTSSDVGGYNYVSWYQQHPGKAPKLMIFDVSNRPSGVSNRFSGSKSGNTASLTFSGLQAEDEADYYCSSYTSSSTLVFGGGTKLTVLG    1.1

t½ reading for mAb15166 (antibody, V domains shown) VH: EVQLVESGGGLVQPGGSLRLSCAASGFTVTSNYMSWVRQAPGKGLEWVSAIYSGESTYYADSVKGRFTISRDSSKNTLYLQMNSLRVEDTAVYYCASIHDYSNYVGGFDPWGQGTLVTVSS VL: QSALTQPASVSGSPGQSITISCTGPSSDFGSYNLVSWYQQHPGKAPKLMIYEGTKRPSGVSNRFSGSKSGNTASLTISGLQAEDEADYYCSSYAGSSTWVFGGGTKLTVLG : 0.3
